experiment: modulators of MEP2-GFP levels in yeast, confirmation, S. cerevisiae, flow cytometry GFP, cherry picks (AID 2272);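 note: ratio of well signal to plate DMSO mean so 100% equals DMSO level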; conditions: S. cerevisiae MEP2-GFP strain, 3 h, at 10 µM, hits give high values
Experimental readout: GFP response vs DMSO (%)
Response body: numeric value in %, unit text excluded.

# annotated cases, reported GFP response vs DMSO shown
- Compound: "Oc1ccc(N=Nc2ccccc2)o1"
  GFP response vs DMSO [%]: 124
- Compound: "O=C(Nc1nc(-c2ccccc2)cs1)c1cccc([N+](=O)[O-])c1"
  GFP response vs DMSO [%]: 105
- Compound: "Cc1cccc(Cn2cc(/C=C/[N+](=O)[O-])c3ccccc32)c1"
  GFP response vs DMSO [%]: 103
- Compound: "COc1ccc(-c2ccc(S(=O)(=O)N3CCOCC3)cc2)cc1"
  GFP response vs DMSO [%]: 99
- Compound: "Cc1ccc(NC(=S)c2nc3ccccc3[nH]2)cc1"
  GFP response vs DMSO [%]: 109

// moving on: another record for GFP response vs DMSO
Q) Answer with the recorded GFP response vs DMSO for the compound listed here: CS(=O)(=O)Nc1ccc(C2=NN(S(C)(=O)=O)C(c3ccc4c(c3)OCO4)C2)cc1 (stereo unspecified)
A) 104

###

Entries and their measured superoxide response (% of plate) follow.
assay: superoxide lowering in aged yeast cells, pilot screen, validation compound set (AID 2706);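 note: yeast exposed to compound for one week at 30 degrees C before staining; 100% = mean of all compound wells on the same plate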; conditions: S. cerevisiae aging, superoxide DHE fluorescence; at 10 µM, hits give low values
Response body: numeric value in %, unit text excluded.

# annotated cases, reported superoxide response (% of plate) shown
- Molecule: "CC(=O)Oc1ccc(C(=O)O)cc1OC(C)=O"
  Display unit: "%"
  superoxide response (% of plate): 98.2
- Molecule: "CC(=O)OCC(OC(C)=O)C(OC(C)=O)C(OC(C)=O)C(=O)Nc1cccc(C)c1 (stereo not given)"
  Display unit: "%"
  superoxide response (% of plate): 110
- Molecule: "O=C(O)CC(O)C(=O)O (stereo not given)"
  Display unit: "%"
  superoxide response (% of plate): 95.8

// moving on: another record for superoxide response (% of plate)
Q) Answer with the recorded superoxide response (% of plate) for the molecule listed here: CCNCCC(CCC(C)C)c1ccc2c(c1)OCO2 (stereo not given)
A) 103

###

target: Beta-adrenergic receptor kinase 1 (Homo sapiens) (UniProt P25098); assay: GRK2 binders displacing RNA aptamer, biochemical, validation, human GRK2, bead flow cytometry (AID 488806); settings: bead-bound GRK2, FAM-aptamer displacement, at 10 µM, hits give high values
Sequence (P25098 whole entry, looked up): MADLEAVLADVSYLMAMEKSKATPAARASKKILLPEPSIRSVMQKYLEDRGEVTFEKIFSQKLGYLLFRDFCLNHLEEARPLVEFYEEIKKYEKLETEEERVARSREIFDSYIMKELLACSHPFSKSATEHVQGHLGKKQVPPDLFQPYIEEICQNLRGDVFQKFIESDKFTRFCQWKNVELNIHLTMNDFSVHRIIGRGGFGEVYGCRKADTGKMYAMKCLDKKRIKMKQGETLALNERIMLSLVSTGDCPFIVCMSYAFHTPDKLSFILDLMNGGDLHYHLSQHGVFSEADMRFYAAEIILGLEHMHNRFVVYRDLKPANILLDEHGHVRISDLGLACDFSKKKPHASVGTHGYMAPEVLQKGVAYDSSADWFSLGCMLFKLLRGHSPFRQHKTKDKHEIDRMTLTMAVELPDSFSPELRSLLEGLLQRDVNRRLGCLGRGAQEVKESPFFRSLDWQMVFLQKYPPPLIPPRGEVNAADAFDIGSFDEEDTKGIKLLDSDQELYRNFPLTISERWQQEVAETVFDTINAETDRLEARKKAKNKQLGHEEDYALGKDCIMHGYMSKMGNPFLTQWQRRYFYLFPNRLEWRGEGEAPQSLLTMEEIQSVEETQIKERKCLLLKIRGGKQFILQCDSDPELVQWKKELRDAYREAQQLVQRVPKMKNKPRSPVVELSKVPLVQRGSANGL
Activity calls are given as the source filed them.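 How the source made its calls: active means aptamer binding inhibition above 30%, about 3 SD of noise from non-fluorescent compounds; inactive means inhibition at or below 30%.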
Entries and their measured aptamer binding inhibition follow.

- Compound: "C(=C\\c1ccccc1)/CN1CCN(C(c2ccccc2)c2ccccc2)CC1"
  aptamer binding inhibition: "0% (inactive)"
- Compound: "COc1ccc(CNC(=O)c2cc3c(=O)n4ccccc4nc3n(Cc3cccnc3)c2=N)cc1"
  aptamer binding inhibition: "-6% (inactive)"
- Compound: "CC(=O)OCC(=O)[C@@]12OC3(CCCC3)O[C@@H]1C[C@H]1[C@@H]3CCC4=CC(=O)C=C[C@]4(C)[C@@]3(F)[C@@H](O)C[C@@]12C"
  aptamer binding inhibition: "2% (inactive)"
- Compound: "Cc1ccc2c(c1)c1c(n2C)C(=O)CCC1"
  aptamer binding inhibition: "2% (inactive)"
- Compound: "COc1ccc(CN(CCN(C)C)c2ccccn2)cc1"
  aptamer binding inhibition: "0% (inactive)"

Q) Answer with the recorded aptamer binding inhibition for the compound listed here: CC12CCC(C(=O)Nc3ccccc3Br)(C/C1=N\O)C2(C)C (stereo not given)
A) 3% (inactive)

Q) Answer with the recorded aptamer binding inhibition for the compound listed here: Cc1ccc(P(=O)(CSC(=N)N)c2ccc(C)cc2)cc1
A) 8% (inactive)

Q) Answer with the recorded aptamer binding inhibition for the compound listed here: CC(C)OC(=O)CC1C(=O)NCCN1C(=S)NC(=O)c1ccccc1Cl (stereo not given)
A) 1% (inactive)

Q) Answer with the recorded aptamer binding inhibition for the compound listed here: CCC1(c2ccccc2)C(=O)NCNC1=O
A) 2% (inactive)

Q) Answer with the recorded aptamer binding inhibition for the compound listed here: CC(O)Cn1cnc2c1c(=O)n(C)c(=O)n2C (stereo not given)
A) 0% (inactive)

Q) Answer with the recorded aptamer binding inhibition for the compound listed here: CN1CCc2cccc3c2[C@@H]1Cc1ccc(O)c(O)c1-3
A) 11% (inactive)

Q) Answer with the recorded aptamer binding inhibition for the compound listed here: COc1ccc2c(c1)C(=O)CC(c1ccccc1F)O2 (stereo not given)
A) 0% (inactive)

Q) Answer with the recorded aptamer binding inhibition for the compound listed here: Nc1ccc(S(=O)(=O)c2ccc(N)cc2)cc1
A) 0% (inactive)

Q) Answer with the recorded aptamer binding inhibition for the compound listed here: COc1ccc([C@@H]2Sc3ccccc3N(CCN(C)C)C(=O)[C@@H]2OC(C)=O)cc1
A) -1% (inactive)
